- ASSAY_PROCEDURE: amyloid nucleation score (Sup35N fusion, yeast selection) (log enrichment); library NNK1; higher = more nucleation; inactive = no reads after selection;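 note: zero at mode of non-aggregating sequences after 7 days selection at 30°C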

SUBSTANCE: STKQFFRLAFRGPWKTGHKP
amyloid nucleation score: 0.273
//
SUBSTANCE: NLCVVREWYSKSCWPRFLRV
amyloid nucleation score: -0.274
//
SUBSTANCE: KQCGVKWFMAG
amyloid nucleation score: 0.437
//
SUBSTANCE: AIALQV
amyloid nucleation score: -1.18
//
SUBSTANCE: SFRCGSNNSIHD
amyloid nucleation score: -2.02
//
SUBSTANCE: RSFTVCEFMFLFRLWDNSAY
amyloid nucleation score: 0.11
//
SUBSTANCE: RFHSFYNPQSSIDITLVGGF
amyloid nucleation score: 4.65
//
SUBSTANCE: YCWFFMLWEYTCWLVF
amyloid nucleation score: 0.17
//
SUBSTANCE: NMWGVGDVTGIF
amyloid nucleation score: 1.62
//
SUBSTANCE: RNQRSSMWVGNRCYGGRCVW
amyloid nucleation score: 0.898
//
SUBSTANCE: CTVMDRLLTQEPTNRRWSRY
amyloid nucleation score: 0.06
//
SUBSTANCE: TRMGEL
amyloid nucleation score: -0.089
//
SUBSTANCE: NLVFSMPAVWALVYVFTLFI
amyloid nucleation score: 1.51
//
SUBSTANCE: QYFSWGRVATCSACG
amyloid nucleation score: 0.309
//
SUBSTANCE: DFGLCHAQNSITQAPDR
amyloid nucleation score: -0.153
//
SUBSTANCE: IGYLDMGNRFGYLLARC
amyloid nucleation score: -1.1
//
SUBSTANCE: MYEMTG
amyloid nucleation score: -0.388
//
SUBSTANCE: LSYSWADSAPLCCTPMRGRG
amyloid nucleation score: -0.324
//
SUBSTANCE: INAQAVIGNFRGRYSVYNVH
amyloid nucleation score: 4.23
//
SUBSTANCE: FFGGNSAVVVIRWMSRSGHW
amyloid nucleation score: 0.489
//
SUBSTANCE: HLLSGMITCDDLHGCGLEGI
amyloid nucleation score: 0.344
//
SUBSTANCE: WSSHYVSLRKVCVCGRRPWS
amyloid nucleation score: 3.46
//
SUBSTANCE: SLGVSDI
amyloid nucleation score: -1.16
//
SUBSTANCE: SFNNFEFILVIDYKRKSYMR
amyloid nucleation score: -0.222
//
SUBSTANCE: TRDTLIWFGRFGSMTDWCSW
amyloid nucleation score: 0.192
//
SUBSTANCE: SNRCSPDMESDVHSVKELYR
amyloid nucleation score: 0.762
//
SUBSTANCE: IYTLGKKGMNHHDVGQWLFT
amyloid nucleation score: 1.55
//
SUBSTANCE: FRQPGYMCEIRVVGFGPKPL
amyloid nucleation score: -0.274

Provenance of the data: the supplement of paper PMC12042874
